// data source = the supplement of paper PMC8728848

- target_or_system: Fuc(a1-2)[GalNAc(a1-3)]Gal
- assay: glycan array binding signal (z-score within array); higher = stronger binding
- measurement_setup: glycan notation: IUPAC condensed, linker removed
Shown is part of a subset that was picked to be rich in the strongest signals.
Note to self: values exactly at -0.3 are T. So glycan array binding signal (z-score) at or above -0.3 is T, below is F.

Prompt line: Quick check: does SJCP1084 (Schistosoma japonicum) (protein) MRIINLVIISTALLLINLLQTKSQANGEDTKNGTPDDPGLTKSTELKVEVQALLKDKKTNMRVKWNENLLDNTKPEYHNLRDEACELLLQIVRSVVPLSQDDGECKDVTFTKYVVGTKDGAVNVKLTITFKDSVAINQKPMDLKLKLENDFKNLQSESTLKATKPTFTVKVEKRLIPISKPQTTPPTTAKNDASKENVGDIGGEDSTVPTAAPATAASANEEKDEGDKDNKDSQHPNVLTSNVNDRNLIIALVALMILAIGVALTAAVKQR have glycan array binding signal (z-score) greater than or equal to -0.3?
Response line: T
